system: HPPD polypeptides (wild-type SEQ ID NO:1 and mutants); conditions: kapp in presence of 50 μM Cmpd. 1, normalised to kapp without inhibitor; low substrate concentration
Measure: Residual activity (%)

{"columns": ["Molecule", "Result Unit", "Readout Value"],
 "data": [
  ["50 (protein, mutant HPPD polypeptide) MADLYENPMGLMGFEFIEFASPTPGTLEPIFEIMGFTKVATHRSKNVHLYRQGEINLILNNEPNSIASYFAAEHGPSVCGMAFRVKDSQKAYNRALELGAQPIHIDTGPMELNLPAIKGIGGAPLYLIDRFGEGSSIYDIDFVYLEGVERNPVGAGLKVIDHLTHNVYRGRMVYWANFYEKLFNFREARYFDIKGEYTGLTSKAMSAPDGMIRIPLNEESSKGAGQIEEFLMQFNGEGIQHVAFLTDDLVKTWDALKKIGMRFMTAPGDEYYEMLEGRLPDHGEPVDQLQARGILLDGSSVEGDKRLLLQIFSETLMGPVFFEFIQRKGDPGFGPDSFKVLFESVERDQVRRGVLTAD", "%", 46],
  ["36 (protein, mutant HPPD polypeptide) MADLYENPMGLMGFEFIEFASPTPGTLEPIFEIMGFTKVATHRSKNVHLYRQGEINLILNNEPNSIASYFAAEHGPSVCGMAFRVKDSQKAYNRALELGAQPIHIDTGPMELNLPAIKGIGGAPLYLIDRFGEGSSIYDIDFVYLEGVERNPVGAGLKVIDHLTHNVYRGRMVYWANFYEKLFNFREARYFDIKGEYTGLTSKAMSAPDGMIRIPLNEESSKGAGQIEEFLMQFNGEGIQHVAFLTDDLVKTWDALKKIGMRFRTAPGDEYYEMLEGRLPDHGEPVDQLQARGILLDGSSVEGDKRLLLQIFSETLMGPVFFEFIQRKGHDGFGPDSFKVLFESMERDQVRRGVLTAD", "%", 67]
]}
